test system: CEM-SS; assay: Concentration of compound required to reduce the cellular viability in uninfected CEM-SS cells by 50%; assay type: functional; settings: Homo sapiens
# CC50 values compiled below

Compound | CC50
CC(C)CCCC(C)[C@H]1CC[C@H]2[C@@H]3CCC4C[C@@H](CCC=C(c5cc(Cl)c(OCc6cccc(C(=O)O)c6)c(C(=O)O)c5)c5cc(Cl)c(OCc6cccc(C(=O)O)c6)c(C(=O)O)c5)CC[C@]4(C)[C@H]3CC[C@]12C (some centres undefined) | > 316 µM
CC(C)CCCC(C)[C@H]1CC[C@H]2[C@@H]3CCC4C[C@@H](CCC=C(c5cc(Cl)c(OCc6ccc(CC(=O)O)cc6)c(C(=O)O)c5)c5cc(Cl)c(OCc6ccc(CC(=O)O)cc6)c(C(=O)O)c5)CC[C@]4(C)[C@H]3CC[C@]12C (some centres undefined) | 133 µM
CC(C)CCCC(C)[C@H]1CC[C@H]2[C@@H]3CCC4C[C@@H](CCC=C(c5cc(Cl)c(OCc6ccc(-c7cccc(C(=O)O)c7)cc6)c(C(=O)O)c5)c5cc(Cl)c(OCc6ccc(-c7cccc(C(=O)O)c7)cc6)c(C(=O)O)c5)CC[C@]4(C)[C@H]3CC[C@]12C (some centres undefined) | > 200 µM
CC(C)CCCC(C)[C@H]1CC[C@H]2[C@@H]3CCC4C[C@@H](CCC=C(c5cc(Cl)c(OCc6ccc(-c7ccccc7C(=O)O)cc6)c(C(=O)O)c5)c5cc(Cl)c(OCc6ccc(-c7ccccc7C(=O)O)cc6)c(C(=O)O)c5)CC[C@]4(C)[C@H]3CC[C@]12C (some centres undefined) | > 200 µM

====

system: CEM-SS; test: Concentration of compound required to reduce the cellular viability in uninfected CEM-SS cells by 50%; format: functional; conditions: Homo sapiens
Metric Name: CC50

Compound | Metric Name | Reported Measurement
CC(C)CCCC(C)[C@H]1CC[C@H]2[C@@H]3CCC4C[C@@H](CCC=C(c5cc(Cl)c(O)c(C(=O)O)c5)c5cc(Cl)c(O)c(C(=O)O)c5)CC[C@]4(C)[C@H]3CC[C@]12C (some centres undefined) | CC50 | > 200 µM
CC(C)CCCC(C)[C@H]1CC[C@H]2[C@@H]3CCC4C[C@@H](CCC=C(c5cc(Cl)c(OCc6ccc(-c7ccc(C(=O)O)cc7)cc6)c(C(=O)O)c5)c5cc(Cl)c(OCc6ccc(-c7ccc(C(=O)O)cc7)cc6)c(C(=O)O)c5)CC[C@]4(C)[C@H]3CC[C@]12C (some centres undefined) | CC50 | > 100 µM
CC(C)CCCC(C)[C@H]1CC[C@H]2[C@@H]3CCC4C[C@@H](CCC=C(c5cc(Cl)c(OCc6ccc(C(=O)O)cc6)c(C(=O)O)c5)c5cc(Cl)c(OCc6ccc(C(=O)O)cc6)c(C(=O)O)c5)CC[C@]4(C)[C@H]3CC[C@]12C (some centres undefined) | CC50 | 72 µM
CC(C)CCCC(C)[C@H]1CC[C@H]2[C@@H]3CCC4C[C@@H](CCC=C(c5cc(Cl)c(OCc6ccccc6C(=O)O)c(C(=O)O)c5)c5cc(Cl)c(OCc6ccccc6C(=O)O)c(C(=O)O)c5)CC[C@]4(C)[C@H]3CC[C@]12C (some centres undefined) | CC50 | > 316 µM
